The reported numbers originate from patent US10160762B2.

molecular target: human PDE2A1 (Homo sapiens); construct: GST; purchased BPS Bioscience (San Diego, Calif.) 60020; host or cells: insect cells; assay: IMAP FP PDE assay, human PDE2A1; assay type: biochemical; conditions: Lab A; read-out: Human PDE2 Ki (nM) Lab A
Sequence (O00408 1-920 isoform O00408-2): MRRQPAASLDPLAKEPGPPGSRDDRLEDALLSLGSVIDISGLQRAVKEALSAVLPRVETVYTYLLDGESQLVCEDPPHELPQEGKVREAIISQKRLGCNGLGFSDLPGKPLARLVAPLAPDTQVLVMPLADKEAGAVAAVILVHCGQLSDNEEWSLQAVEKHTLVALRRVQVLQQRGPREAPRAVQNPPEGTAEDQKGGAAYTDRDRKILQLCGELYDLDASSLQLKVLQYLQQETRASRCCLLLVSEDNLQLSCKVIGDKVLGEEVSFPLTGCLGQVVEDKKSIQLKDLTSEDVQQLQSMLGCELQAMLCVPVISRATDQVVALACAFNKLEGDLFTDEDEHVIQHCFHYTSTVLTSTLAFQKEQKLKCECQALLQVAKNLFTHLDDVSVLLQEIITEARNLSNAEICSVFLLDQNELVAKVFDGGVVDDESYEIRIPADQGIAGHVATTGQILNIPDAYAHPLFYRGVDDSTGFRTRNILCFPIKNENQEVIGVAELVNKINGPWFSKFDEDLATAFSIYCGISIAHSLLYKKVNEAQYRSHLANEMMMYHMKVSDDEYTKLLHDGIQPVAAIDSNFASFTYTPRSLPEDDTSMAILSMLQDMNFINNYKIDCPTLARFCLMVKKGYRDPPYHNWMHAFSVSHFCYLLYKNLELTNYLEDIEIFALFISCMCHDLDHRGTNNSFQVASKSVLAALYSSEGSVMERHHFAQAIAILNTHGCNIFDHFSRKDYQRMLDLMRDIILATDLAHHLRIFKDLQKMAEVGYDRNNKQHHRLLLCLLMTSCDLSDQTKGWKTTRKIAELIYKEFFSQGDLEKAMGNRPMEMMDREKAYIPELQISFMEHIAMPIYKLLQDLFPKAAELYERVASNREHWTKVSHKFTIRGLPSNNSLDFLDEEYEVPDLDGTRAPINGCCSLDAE
Label 1 (yes) when Ki is strictly below 40 nM; otherwise label 0 (no).

# input Please indicate whether the reported Ki of CCCc1nc2c(c(C)nn2C(C)c2ccc(C(F)(F)F)cc2)c(=O)[nH]1 (centres unmarked) is strictly below 40 nM.
# output 1 (yes)

# input What would you report for Cc1ccc(C(C)n2nc(CO)c3c(=O)[nH]c(C)nc32)cc1 (centres unmarked) ?
# output 1 (yes)

# input Also, COc1cccc(-c2nc3c(c(C)nn3C(C)c3ccc(C(F)(F)F)cc3)c(=O)[nH]2)c1 (centres unmarked) please.
# output 1 (yes)

# input Consider next the compound Cc1nc2c(c(C(C)(C)O)nn2C(C)c2ccc(C(F)(F)F)cc2)c(=O)[nH]1 (centres unmarked) in the same way.
# output 0 (no)

# input Now give it for Cc1nc2c(c(CO)nn2C(C)c2ccc(C(F)(F)F)cc2)c(=O)[nH]1 (centres unmarked) [Example 7] too.
# output 1 (yes)

# input Same thing, different compound: Cc1nc2c(c(CO)nn2Cc2ccc(C(F)(F)F)cc2)c(=O)[nH]1
# output 0 (no)

# input Thanks! And CCOCCc1nc2c(c(C)nn2C(C)c2ccc(C(F)(F)F)cc2)c(=O)[nH]1 (centres unmarked) ?
# output 0 (no)
